The measurements presented in this section are drawn from ChEMBL document CHEMBL2073852.

target: Mrp3 (ATP-binding cassette sub-family C member 3, ABCC3) (Rattus norvegicus, UniProt O88563); assay: TP_TRANSPORTER: inhibition of F-MTX uptake (F-MTX: 5.0 uM, MK-571: 100.0 uM) in membrane vesicles from IEC-6 cells; format: functional, cell membranes, Membrane vesicle; parameters: scale not given: the % may be the effect or the level left; settings: probe F-MTX, read-out: Activity
Sequence (O88563 whole entry): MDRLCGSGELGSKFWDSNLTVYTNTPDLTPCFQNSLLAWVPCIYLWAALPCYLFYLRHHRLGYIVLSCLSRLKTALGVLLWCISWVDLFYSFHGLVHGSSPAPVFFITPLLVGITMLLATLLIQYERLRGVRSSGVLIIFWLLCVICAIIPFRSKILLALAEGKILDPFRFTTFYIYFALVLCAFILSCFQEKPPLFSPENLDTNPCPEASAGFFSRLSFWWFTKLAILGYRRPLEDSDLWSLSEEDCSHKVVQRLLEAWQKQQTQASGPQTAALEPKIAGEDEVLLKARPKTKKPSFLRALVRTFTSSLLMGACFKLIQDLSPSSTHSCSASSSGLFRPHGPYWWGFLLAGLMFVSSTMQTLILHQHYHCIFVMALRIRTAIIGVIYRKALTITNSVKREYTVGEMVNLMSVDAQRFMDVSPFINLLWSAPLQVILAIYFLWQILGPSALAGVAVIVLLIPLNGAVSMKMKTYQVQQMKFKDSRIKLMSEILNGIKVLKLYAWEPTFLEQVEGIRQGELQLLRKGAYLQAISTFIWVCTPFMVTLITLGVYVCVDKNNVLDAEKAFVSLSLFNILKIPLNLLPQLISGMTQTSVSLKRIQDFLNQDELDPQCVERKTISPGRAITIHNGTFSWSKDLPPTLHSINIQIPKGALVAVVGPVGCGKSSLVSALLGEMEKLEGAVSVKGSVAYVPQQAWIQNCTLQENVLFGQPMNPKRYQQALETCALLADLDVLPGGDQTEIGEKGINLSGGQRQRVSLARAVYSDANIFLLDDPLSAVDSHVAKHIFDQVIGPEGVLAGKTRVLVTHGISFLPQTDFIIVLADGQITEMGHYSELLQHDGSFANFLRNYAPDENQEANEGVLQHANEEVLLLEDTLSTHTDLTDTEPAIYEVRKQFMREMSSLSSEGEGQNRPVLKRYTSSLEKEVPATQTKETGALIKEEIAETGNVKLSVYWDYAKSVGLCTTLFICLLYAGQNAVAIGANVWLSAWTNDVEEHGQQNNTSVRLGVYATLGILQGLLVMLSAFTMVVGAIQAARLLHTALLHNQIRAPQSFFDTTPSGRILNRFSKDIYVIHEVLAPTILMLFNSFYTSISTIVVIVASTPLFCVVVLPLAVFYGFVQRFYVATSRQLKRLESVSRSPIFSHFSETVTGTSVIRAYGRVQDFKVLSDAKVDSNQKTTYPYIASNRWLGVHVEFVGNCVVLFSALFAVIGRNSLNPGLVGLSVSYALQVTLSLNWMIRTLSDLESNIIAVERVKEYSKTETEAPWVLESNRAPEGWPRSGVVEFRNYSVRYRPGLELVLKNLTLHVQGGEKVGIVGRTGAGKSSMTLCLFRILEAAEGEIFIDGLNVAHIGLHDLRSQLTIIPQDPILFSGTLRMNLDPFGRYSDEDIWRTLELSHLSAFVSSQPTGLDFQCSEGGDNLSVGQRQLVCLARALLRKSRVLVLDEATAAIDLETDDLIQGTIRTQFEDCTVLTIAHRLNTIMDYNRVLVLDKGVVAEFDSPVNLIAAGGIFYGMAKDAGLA
metric name: activity at 100 µM (%)
Give the quantity in %, number only.

Form: compound = CN(C)C(=O)CCSC(SCCC(=O)O)c1cccc(/C=C/c2ccc3ccc(Cl)cc3n2)c1 (stereo unspecified) ; activity at 100 µM = 9.5
